# Measured Target: T1, Sis10b K17R (Sulfolobus islandicus REY15A, UniProt F0NHH1 1-97, K17R)
# T1 sequence: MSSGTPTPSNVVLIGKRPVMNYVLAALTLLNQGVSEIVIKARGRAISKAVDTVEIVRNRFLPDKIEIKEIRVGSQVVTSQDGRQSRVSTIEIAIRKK
# Test: EMSA; 55°C; EMSA: 20 mM HEPES-NaOH pH 7.0, 1 mM DTT, 100 ug/ml BSA, 6% glycerol, 30 min at 25, 37 or 55°C; gel in 0.5x TBE at the same temperature
# Run Conditions: protein: recombinant; tags: none; chain copies: 2; label: 5' 32P on top strand; blunt
pKd: −log10 of the molar value.
Measurement Name: pKd

Provide measured pKd value, entry: 44-bp dsRNA (dsRNA) RNA 1: UGACUUCCGCGCGUGAGCUCGAUUCCACAUACCCUAAAUCGCUC RNA 2: GAGCGAUUUAGGGUAUGUGGAAUCGAGCUCACGCGCGGAAGUCA ~7.55

Values compiled from paper PMC7498313.
